Test system: 388556-164-R-J1-PDC complex spheroid viability;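 also: spheroids exposed to compound for 7 days before readout; 100% = DMSO vehicle control luminescence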
Test: Anticancer human tumor 388556-164-R-J1-PDC patient-derived colon adenocarcinoma cell line growth inhibition [RAS]
Conditions: second compound 0.1 µM; first compound 1 µM; active compounds read low
endpoint: viability, T/C (%)
Reply with just the number (in %).

molecule	endpoint	quantity.unit	reported.value
O=C(c1ccc(F)c(F)c1Nc1ccc(I)cc1F)N1CC(O)([C@@H]2CCCCN2)C1 + C#Cc1c(F)ccc2cc(O)cc(-c3ncc4c(N5CC6CCC(C5)N6)nc(OCC56CCCN5CC(F)C6)nc4c3F)c12	viability, T/C	%	22.2
CC(Nc1ccc2c(c1)OCCn1cc(N3C(=O)OCC3C(F)F)nc1-2)C(N)=O (configuration not stated) + C#Cc1c(F)ccc2cc(O)cc(-c3ncc4c(N5CC6CCC(C5)N6)nc(OCC56CCCN5CC(F)C6)nc4c3F)c12	viability, T/C	%	81
NC1c2ccccc2OC12CCN(c1cnc3c(N4CCCc5ncccc54)n[nH]c3n1)CC2 (configuration not stated) + C=CC(=O)N1CCN(c2nc(OCC3CCCN3C)nc3c(F)c(-c4nc(N)cc(C)c4C(F)(F)F)c(Cl)cc23)C(C)C1	viability, T/C	%	40.5
C[C@@H](NC(=O)c1ncnc(N)c1Cl)c1ncc(C(=O)Nc2cc(C(F)(F)F)c(Cl)cn2)s1 + C=CC(=O)N1CCN(c2nc(OCC3CCCN3C)nc3c(F)c(-c4nc(N)cc(C)c4C(F)(F)F)c(Cl)cc23)C(C)C1	viability, T/C	%	117
C[C@@H](NC(=O)c1ncnc(N)c1Cl)c1ncc(C(=O)Nc2cc(C(F)(F)F)c(Cl)cn2)s1 + C#Cc1c(F)ccc2cc(O)cc(-c3ncc4c(N5CC6CCC(C5)N6)nc(OCC56CCCN5CC(F)C6)nc4c3F)c12	viability, T/C	%	113
CCC(CC)c1cc(NC2CCC(N)C2)n2nccc2n1 (configuration not stated) + C#Cc1c(F)ccc2cc(O)cc(-c3ncc4c(N5CC6CCC(C5)N6)nc(OCC56CCCN5CC(F)C6)nc4c3F)c12	viability, T/C	%	94.7

Q: Look up and report measured viability, T/C for this entry: CC(Nc1ccc2c(c1)OCCn1cc(N3C(=O)OCC3C(F)F)nc1-2)C(N)=O (configuration not stated) + C=CC(=O)N1CCN(c2nc(OCC3CCCN3C)nc3c(F)c(-c4nc(N)cc(C)c4C(F)(F)F)c(Cl)cc23)C(C)C1
Ans: 77.2

Q: Identify measured viability, T/C corresponding to C=CC(=O)Nc1cc(Nc2nccc(-c3cn(C)c4ccccc34)n2)c(OC)cc1N(C)CCN(C)C + C=CC(=O)N1CCN(c2nc(OCC3CCCN3C)nc3c(F)c(-c4nc(N)cc(C)c4C(F)(F)F)c(Cl)cc23)C(C)C1
Ans: 54.6

Q: Read the entry CCN1CCN(Cc2ccc(Nc3ncc(F)c(-c4cc(F)c5nc(C)n(C(C)C)c5c4)n3)nc2)CC1 + C#Cc1c(F)ccc2cc(O)cc(-c3ncc4c(N5CC6CCC(C5)N6)nc(OCC56CCCN5CC(F)C6)nc4c3F)c12 and write its reported viability, T/C.
Ans: 99.5

Q: Quickly give me recorded viability, T/C for Nc1ccn(C2OC(CO)C(O)C2(F)F)c(=O)n1 (configuration not stated) + C#Cc1c(F)ccc2cc(O)cc(-c3ncc4c(N5CC6CCC(C5)N6)nc(OCC56CCCN5CC(F)C6)nc4c3F)c12
Ans: 78.5

Q: Look up and report measured viability, T/C for this entry: C=CC(=O)Nc1cc(Nc2nccc(-c3cn(C)c4ccccc34)n2)c(OC)cc1N(C)CCN(C)C + C#Cc1c(F)ccc2cc(O)cc(-c3ncc4c(N5CC6CCC(C5)N6)nc(OCC56CCCN5CC(F)C6)nc4c3F)c12
Ans: 57.8

Q: Input O=C(c1ccc(F)c(F)c1Nc1ccc(I)cc1F)N1CC(O)([C@@H]2CCCCN2)C1 + C=CC(=O)N1CCN(c2nc(OCC3CCCN3C)nc3c(F)c(-c4nc(N)cc(C)c4C(F)(F)F)c(Cl)cc23)C(C)C1 , output reported viability, T/C.
Ans: 23.3

Q: In one line, give reported viability, T/C of the entry CC1(O)CCCC1n1c(=O)c(C(F)F)cc2cnc(NC3CCN(S(C)(=O)=O)CC3)nc21 (configuration not stated) + C#Cc1c(F)ccc2cc(O)cc(-c3ncc4c(N5CC6CCC(C5)N6)nc(OCC56CCCN5CC(F)C6)nc4c3F)c12 .
Ans: 97.3

Q: Output viability, T/C of CC(=O)OC12COC1CC(O)C1(C)C(=O)C(O)C3=C(C)C(OC(=O)C(O)C(NC(=O)OC(C)(C)C)c4ccccc4)CC(O)(C(OC(=O)c4ccccc4)C21)C3(C)C (configuration not stated) + C#Cc1c(F)ccc2cc(O)cc(-c3ncc4c(N5CC6CCC(C5)N6)nc(OCC56CCCN5CC(F)C6)nc4c3F)c12
Ans: 75.2

Q: Supply reported viability, T/C belonging to this molecule: CC(C)NCC(C(=O)N1CCN(c2ncnc3c2C(C)CC3O)CC1)c1ccc(Cl)cc1 (configuration not stated) + C#Cc1c(F)ccc2cc(O)cc(-c3ncc4c(N5CC6CCC(C5)N6)nc(OCC56CCCN5CC(F)C6)nc4c3F)c12
Ans: 96

Q: Respond only with viability, T/C recorded for CCC(CC)c1cc(NC2CCC(N)C2)n2nccc2n1 (configuration not stated) + C=CC(=O)N1CCN(c2nc(OCC3CCCN3C)nc3c(F)c(-c4nc(N)cc(C)c4C(F)(F)F)c(Cl)cc23)C(C)C1
Ans: 98.2

Q: For the molecule CC(=O)OC12COC1CC(O)C1(C)C(=O)C(O)C3=C(C)C(OC(=O)C(O)C(NC(=O)OC(C)(C)C)c4ccccc4)CC(O)(C(OC(=O)c4ccccc4)C21)C3(C)C (configuration not stated) + C=CC(=O)N1CCN(c2nc(OCC3CCCN3C)nc3c(F)c(-c4nc(N)cc(C)c4C(F)(F)F)c(Cl)cc23)C(C)C1 , give its reported viability, T/C.
Ans: 74
